Would you kindly list emission maximum for each of these compounds?
- experiment: solvent given as SMILES
- experimental context: in Cc1ccccc1
All answers are understood in nm, so give the number only.

// query So what does the record say about emission maximum for c1ccc(-c2nnc(-c3cc(-c4nnc(-c5ccccc5)o4)c(-n4c5ccccc5c5ccccc54)cc3-n3c4ccccc4c4ccccc43)o2)cc1 ?
// result 439

// query Now try CCCCCCOc1ccc(C#Cc2ccc(C#CC#Cc3ccc(C#Cc4ccc(OCCCCCC)c(OCCCCCC)c4)c4nsnc34)c3nsnc23)cc1OCCCCCC .
// result 528

// query Now try CCOc1cc2c(cc1/C=C/C1=CC(=C(C#N)C#N)CC(C)(C)C1)c1ccccc1n2CC .
// result 578

// query Now try CCN(CC)c1ccc2c(C#N)c(/C=C(\C#N)c3nc4ccccc4s3)c(=O)oc2c1 .
// result 637

// query Now try CCN(CC)c1ccc(/C=C/c2cc(/C=C/c3ccc(N(CC)CC)cc3)nc(N)n2)cc1 .
// result 468

// query Now try c1ccc(-c2nc(-c3ccccc3)nc(-c3cc(-n4c5ccccc5c5ncccc54)c(-n4c5ccccc5c5ccccc54)c(-n4c5ccccc5c5ncccc54)c3)n2)cc1 .
// result 464.88

// query Now try CN(C)c1ccc(-c2cc(-c3ccc(C#N)cc3)nn2C)cc1 .
// result 410

// query Now try CC(C)(C)c1ccc2c(c1)[nH]c1c3[nH]c4cc(C(C)(C)C)ccc4c3c3nsnc3c21 .
// result 472

// query Now try CC(C)c1cc(C(C)C)c(B2c3ccccc3Oc3cc(N4c5ccccc5C5(c6ccccc6Oc6ccccc65)c5ccccc54)ccc32)c(C(C)C)c1 .
// result 451

// query Now try c1ccc(N(c2ccccc2)c2ccc3c(ccc4nc5ccc6cc(N(c7ccccc7)c7ccccc7)ccc6c5nc43)c2)cc1 .
// result 512

// query Now try CC1=C(c2cccs2)C(C)=[N+]2C1=C(c1ccc(O)cc1)c1c(C)c(-c3cccs3)c(C)n1[B-]2(F)F .
// result 604

// query Now try CC(C)(C)c1ccc2c(c1)sc1[n+]2[B-](F)(F)n2c(c3cccc4cccc2c43)=N1 .
// result 506

// query Now try c1ccc2c(c1)CCc1c-2cnc2c1-c1ccccc1CC2 .
// result 362

// query Now try c1ccc(N(c2ccccc2)c2ccc3c4cccc5c(N(c6ccccc6)c6ccccc6)ccc(c6cccc2c63)c54)cc1 .
// result 541

// query Now try Cc1cc(C)c(-c2nnc(-c3ccc(-n4c5ccccc5c5ccccc54)c(C)c3)o2)c(C)c1 .
// result 377

// query Now try N#Cc1c(-n2c3ccccc3c3cc(Br)ccc32)c(-n2c3ccccc3c3cc(Br)ccc32)c(C#N)c(-n2c3ccccc3c3cc(Br)ccc32)c1-n1c2ccccc2c2cc(Br)ccc21 .
// result 543

* * *

Would you kindly list emission maximum for each of these compounds?
- experiment: solvent given as SMILES
- experimental context: in C1CCCCC1
All answers are understood in nm, so give the number only.

// query So what does the record say about emission maximum for c1ccc(-c2ccc(-c3ccc4c(c3)CCCO4)cc2)cc1 ?
// result 359

// query Now try Nc1cc(N)cc(-c2nc3ccccc3s2)c1 .
// result 410.5

// query Now try COc1ccc(-c2ccc(-c3ccc(OC)cc3)cc2)cc1 .
// result 360

// query Now try CCCCCC(CC)C1(C(CC)CCCCC)c2ccccc2-c2ccc(C#Cc3cc(C#Cc4ccc5c(c4)C(C(CC)CCCCC)(C(CC)CCCCC)c4ccccc4-5)c4ccc5c(C#Cc6ccc7c(c6)C(C(CC)CCCCC)(C(CC)CCCCC)c6ccccc6-7)cc(C#Cc6ccc7c(c6)C(C(CC)CCCCC)(C(CC)CCCCC)c6ccccc6-7)c6ccc3c4c65)cc21 (stereo not drawn) .
// result 507

// query Now try C#Cc1ccc2ccc3cccc4ccc1c2c34 .
// result 383

// query Now try Cc1ccc2nc3c(nc2c1)c(-c1ccccc1)nn3C .
// result 472

// query Now try COc1cc(OC)c2c(c1)C(=O)c1ccccc1-2 .
// result 537

// query Now try CC(C)(C)C#Cc1ccc2c3cccc4cccc(c5cccc1c52)c43 .
// result 459.88

// query Now try O=C1Nc2ccccc2/C1=C/C(=O)c1ccccc1 .
// result 374

// query Now try COc1ccc(-c2ccc(-c3ccc(C#N)s3)s2)cc1 .
// result 445

// query Now try Cc1ccc(C2=C3C=CC=[N+]3[B-](F)(F)n3cccc32)cc1 .
// result 516

// query Now try Oc1ccccc1/N=C/c1ccccc1Oc1ccccc1 .
// result 413

// query Now try CN1CCCc2cc3c(C(F)(F)F)cc(=O)oc3cc21 .
// result 439

// query Now try Cc1nn(-c2ccccc2)c(C2=NN(c3ccc(Br)cc3)[C@@H](c3ccccc3)[C@@H]2c2ccccc2)c1C#N .
// result 468

// query Now try CN(C)c1ccc2nc(-c3ccc(C(=O)OC[C@H](NC(=O)OC(C)(C)C)C(=O)OCc4ccccc4)cc3)sc2c1 .
// result 456

// query Now try Cn1nc(-c2ccccc2)c2nc3cc(Cl)ccc3nc21 .
// result 487

// query Now try c1ccc2c(c1)c1ccccc1n2-c1ccc2c(c1)c1ccccc1n2-c1cc2c3ccccc3n3c4ccccc4c(c1)c23 .
// result 391.83

// query Now try CCC1=C(C)C2=Cc3c(I)c(I)c(I)n3[B-](F)(F)[N+]2=C1C .
// result 551.5

// query Now try CN(C)c1ccc(C(=O)Nc2cccc(Cl)c2)cc1 .
// result 338

// query Now try Cc1ccc(NC(=O)c2ccc(N(C)C)cc2)cc1 .
// result 465

// query Now try c1ccc(-c2nc(-c3ccccc3)nc(-c3cc(-n4c5ccccc5c5ccccc54)cc(-n4c5ccccc5c5ccccc54)c3)n2)cc1 .
// result 409.39

// query Now try COC(=O)C(Cc1ccc2oc(-c3ccc(N(c4ccccc4)c4ccccc4)cc3)nc2c1)NC(=O)OC(C)(C)C (stereo not drawn) .
// result 395.25

// query Now try c1ccc(N(c2ccccc2)c2ccc3c(ccc4nc5ccc6cc(N(c7ccccc7)c7ccccc7)ccc6c5nc43)c2)cc1 .
// result 492

// query Now try CCC(C)(C)c1ccc2c(c1)C(CC)(CC)c1cc(-c3ccc4c(c3)C(CC)(CC)c3cc(C(C)(C)CC)ccc3-4)ccc1-2 .
// result 371

// query Now try Cc1cc(C)c(B(c2c(C)cc(C)cc2C)N2c3ccccc3C3(c4ccccc4-c4ccccc43)c3ccccc32)c(C)c1 .
// result 527

// query Now try Cc1cc(C)c(B(c2c(C)cc(C)cc2C)N2c3ccccc3C(C)(C)c3ccccc32)c(C)c1 .
// result 533

// query Now try CCOC(=O)CCOc1ccc(C(c2c(C)[nH]c3ccccc23)c2c(C)[nH]c3ccccc23)cc1 .
// result 328

// query Now try COc1ccc(-c2cc3ccc4cc(-c5ccc(OC)cc5)cc5ccc(c2)c3c45)cc1 .
// result 418.86

// query Now try CC(=O)Nc1ccccc1C(=O)OC1CC(C)CCC1C(C)C (stereo not drawn) .
// result 363

// query Now try CN(C)c1ccccc1 .
// result 339.9

// query Now try COC(=O)c1ccc(C2=C3C=CC(C)=[N+]3[B-](F)(F)n3c(C)ccc32)cc1 .
// result 533

// query Now try c1ccc(-c2cc3cccc[n+]3[b-]3ccc(-c4cc[b-]5c(c4)c(-c4ccccc4)cc4cccc[n+]54)cc32)cc1 .
// result 568

// query Now try CC(C)(C)c1ccc2c3c(c4ccc(C(C)(C)C)cc4c2c1)=[N+]1C(=C(c2ccccc2)c2c(Br)c4c5ccc(C(C)(C)C)cc5c5cc(C(C)(C)C)ccc5c4n2[B-]1(F)F)C=3Br .
// result 711

// query Now try c1ccc(-c2nc(-c3ccccc3)nc(-c3ccccc3-n3c4ccccc4c4c5oc6ccccc6c5ccc43)n2)cc1 .
// result 438.08

// query Now try CN(C)c1ccc(-c2cc(-c3ccc(C#N)cc3)nn2C)cc1 .
// result 363

// query Now try CC(C)(C)NC1=C2C=CC=[N+]2[B-](F)(F)n2cccc21 .
// result 503

// query Now try N#Cc1c(-c2ccccc2)cc(-c2ccccc2)[nH]c1=S .
// result 510

// query Now try N#Cc1c(-c2ccccc2)cc(N2c3ccccc3Oc3ccccc32)cc1-c1ccccc1 .
// result 455

* * *

- experiment: solvent given as SMILES
- experimental context: in CCO
measured parameter: emission maximum (nm)
All answers are understood in nm, so give the number only.

// query So what does the record say about emission maximum for N#Cc1c(-n2c3ccccc3c3ccccc32)c(-n2c3ccccc3c3ccccc32)cc(-n2c3ccccc3c3ccccc32)c1-n1c2ccccc2c2ccccc21 ?
// result 468.52

// query Now try c1ccc(-c2csc(-c3ccncc3)n2)cc1 .
// result 407

// query Now try Nc1ccc2c(-c3ccc(Br)cc3)c3ccc(=[NH2+])cc-3oc2c1 .
// result 532

// query Now try C1=C(c2ccc(-c3cccs3)s2)CCCC1 .
// result 445

// query Now try Cc1oc2c(Cl)cc3c(C)cc(=O)oc3c2c1C .
// result 440

// query Now try CCC1(CC)c2cc(N(C)C)ccc2-c2ccc(C(F)(F)F)cc21 .
// result 388

// query Now try N#Cc1ccc2cc[nH]c2c1 .
// result 358

// query Now try Cc1ccc(C2=C3C=CC=[N+]3[B-](F)(F)n3cccc32)cc1 .
// result 514.5

// query Now try CC(C)(C)OC(=O)NCCCC(=O)OCc1ccc2c3cccc4cccc(c5cccc1c52)c43 .
// result 446

// query Now try CC1CC=C(c2ccc(-c3cccs3)s2)CC1 (stereo unspecified) .
// result 411

// query Now try CNc1ccc2nc3cc(Cl)c(Cl)cc3nc2c1 .
// result 599

// query Now try COc1ccccc1CC(=O)OCc1c(C)c(=O)n2c(=O)c(C)c(C)n12 .
// result 461

// query Now try C1=C(c2ccc(-c3cccs3)s2)CCC(c2ccccc2)C1 (stereo unspecified) .
// result 411

// query Now try CC1(C)CC(=O)C2=C(C1)Oc1ccc3cc(O)ccc3c1C2c1ccccn1 (stereo unspecified) .
// result 377

// query Now try COC(=O)C(Cc1ccc2oc(-c3ccc(-n4c5ccccc5c5ccccc54)cc3)nc2c1)NC(=O)OC(C)(C)C (stereo unspecified) .
// result 445

// query Now try N#CC1=C(c2ccc(-c3cccs3)s2)CCC1 .
// result 443

// query Now try CC(C)=CC(=O)c1cc2c(cc1F)NC(C)(C)CC2=O .
// result 459

// query Now try C[N+]1=C(/C=C/C2=C3Oc4c(cc5c6c4CCCN6CCC5)C(c4ccccc4C(=O)O)=C3CCC2)C(C)(C)c2ccccc21 .
// result 745

// query Now try N#Cc1ccc(C#Cc2ccc3ccc4ccc(C#Cc5ccc(C#N)cc5)c5ccc2c3c45)cc1 .
// result 445.5

// query Now try Cc1ccccc1-c1c2ccc(=[N+]3CCCC3)cc-2oc2cc(N3CCCC3)ccc12 .
// result 576

// query Now try Cc1c(COC(=O)Cc2cccc3ccccc23)n2c(OCC(=O)Cc3cccc4ccccc34)c(C)c(=O)n2c1=O .
// result 458
